All figures here come from patent US20230107642A1.

molecular target: K-Ras G12C (Homo sapiens, UniProt P01116, G12C); construct: This protein contained 188 amino acids in total, including an N-terminal 6-Histidine tag; made in house; host or cells: E. coli BL21; assay: CAF assay (% CAF; method in Example 7, not in this part); assay type: binding; conditions: 10 uM, 60 min; Table 2a
For each record, write down the corresponding % CAF 10 uM @ 60 min.
Give bare numbers, in %.

compound	unitsSymbol	reported
C=CC(=O)N1CCN(c2nc(=O)n3c4c(c(-c5cc(F)cc(F)c5)c(Cl)cc24)SCC3)[C@@H](C)C1	%	91
C=C(F)C(=O)N1CCN(c2nc(=O)n3c4c(c(-c5cc(F)cc(Cl)c5)c(Cl)cc24)SCC3)[C@@H](C)C1	%	3
C[C@H]1CN(C(=O)/C=C/C(F)F)CCN1c1nc(=O)n2c3c(c(-c4cc(F)cc(Cl)c4)c(Cl)cc13)SCC2	%	75
C[C@H]1CN(C(=O)/C=C/C(F)F)CCN1c1nc(=O)n2c3c(c(-c4cc(F)cc(F)c4)c(Cl)cc13)SCC2	%	87
C[C@H]1CN(C(=O)/C=C/C(F)(F)F)CCN1c1nc(=O)n2c3c(c(-c4cc(F)cc(Cl)c4)c(Cl)cc13)SCC2	%	70

Quick batch: % CAF 10 uM @ 60 min for everything below.
1. C=CC(=O)N1CCN(c2nc(=O)n3c4c(c(-c5cc(C6CC6)ccc5F)c(Cl)cc24)SCC3)[C@@H](C)C1 [Example 62a]
2. C=CC(=O)N1CCN(c2nc(=O)n3c4c(c(-c5ccc(F)cc5F)c(Cl)cc24)S(=O)(=O)CC3)[C@@H](C)C1

Ans.
1: 67; 2: 88.8
